Hello, the source for this data is patent US20260008760A1, in case you need it.

- measurement target: DPP1 in HL-60 cells (Homo sapiens, UniProt P53634)
- Sequence (P53634 25-463): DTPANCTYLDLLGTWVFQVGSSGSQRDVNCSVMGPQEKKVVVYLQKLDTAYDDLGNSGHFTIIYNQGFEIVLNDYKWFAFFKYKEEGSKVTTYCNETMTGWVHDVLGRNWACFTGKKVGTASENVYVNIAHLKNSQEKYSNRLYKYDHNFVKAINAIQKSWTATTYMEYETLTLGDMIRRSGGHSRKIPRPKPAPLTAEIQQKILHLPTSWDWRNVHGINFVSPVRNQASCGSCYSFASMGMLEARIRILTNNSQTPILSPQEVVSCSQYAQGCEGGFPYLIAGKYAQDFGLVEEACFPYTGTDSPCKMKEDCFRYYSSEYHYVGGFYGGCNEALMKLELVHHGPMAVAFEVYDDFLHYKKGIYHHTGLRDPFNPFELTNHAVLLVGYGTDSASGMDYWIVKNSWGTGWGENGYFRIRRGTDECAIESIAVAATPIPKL
- test description: DPP1 Cell Single-Point Percent Inhibition Testing
- Format: cell-based
- Set-up: host or cells: HL-60 cells
- measurement conditions: final compound concentration 5 nM, n = 1
- Method: Example 100. DPP1 Cell Single-Point Percent Inhibition Testing HL-60 cells (ATCC; Manassas, VA) were maintained in RPMI-1640 supplemented with 20% heat-inactivated FBS and 1× Antibiotic Antimycotic (Cytiva; Marlborough, MA). Media was changed every three to four days and cells were not allowed to exceed 1×10^6 cells per mL. Prior to assay, cells were collected by centrifugation at 500 rcf for 3 minutes, resuspended in RPMI (with no additional supplements) and counted. […]
measured quantity: inhibition at 0.005 µM

# inhibition at 0.005 µM of Cc1ncc(C)n2cc(-c3ccc(C[C@@H](C#N)NC(=O)[C@@H]4CN[C@@H](C)[C@H](O)CO4)cc3)cc12 = ≤ 76.5%

# inhibition at 0.005 µM of CO[C@H]1CCO[C@H](C(=O)N[C@H](C#N)Cc2ccc(-c3cnc4c(n3)CCCC4)cc2)CNC1 = ≤ 76.5%

# inhibition at 0.005 µM of CO[C@@H]1CCNC[C@@H](C(=O)N[C@H](C#N)Cc2ccc(-c3cc4c(C)ncc(C)n4c3)cc2)OC1 = 76.5 to 93.9%

# inhibition at 0.005 µM of N#C[C@H](Cc1ccc(-c2cnc3c(n2)CCCC3)cc1)NC(=O)[C@@H]1CNCCCO1 = ≤ 76.5%

# inhibition at 0.005 µM of Cn1c(=O)oc2cc3c(cc21)-c1cc(F)c(CC(C#N)NC(=O)[C@@H]2CNCCCCO2)cc1OC3 (stereo partly drawn) = 76.5 to 93.9%

# inhibition at 0.005 µM of CO[C@@H]1CCNC[C@@H](C(=O)N[C@H](C#N)Cc2ccc(-c3ccc4c(c3)C3(CCN(C)C3)OC4=O)cc2)OC1 (stereo partly drawn) = ≤ 76.5%

# inhibition at 0.005 µM of C[C@@H]1NC[C@@H](C(=O)N[C@H](C#N)Cc2ccc(-c3ccc4nnn(C)c4c3)cc2F)OC[C@@H]1O = ≤ 76.5%

# inhibition at 0.005 µM of C[C@@H]1NC[C@@H](C(=O)N[C@H](C#N)Cc2ccc(-c3ccc4c(n3)CCCN4)cc2F)OC[C@@H]1O = ≤ 76.5%

# inhibition at 0.005 µM of COC1CNC[C@@H](C(=O)N[C@H](C#N)Cc2ccc(-c3ccc4c(n3)CCCN4)cc2)OC1 (stereo partly drawn) = 76.5 to 93.9%

# inhibition at 0.005 µM of CO[C@@H]1CCNC[C@@H](C(=O)N[C@H](C#N)Cc2ccc(-c3ccc4c(c3)C3(CCN(C5COC5)CC3)OC4)cc2)OC1 = ≤ 76.5%

# inhibition at 0.005 µM of Cn1c(=O)oc2cc3c(cc21)-c1cc(F)c(CC(C#N)NC(=O)[C@@H]2CNCCCO2)cc1OC3 (stereo partly drawn) = 76.5 to 93.9%

# inhibition at 0.005 µM of CO[C@@H]1CCNC[C@@H](C(=O)N[C@H](C#N)Cc2cc3c(cc2F)-c2ccc(C#N)cc2CO3)OC1 = ≥ 93.9%

# inhibition at 0.005 µM of CO[C@@H]1CCNC[C@@H](C(=O)N[C@H](C#N)Cc2ccc(-c3ccc(S(=O)(=O)N4CCC4)cc3)cc2F)OC1 = ≤ 76.5%

# inhibition at 0.005 µM of CO[C@H]1CCO[C@H](C(=O)N[C@H](C#N)Cc2ccc(-c3ccc4c(c3)C3(CCCN(C)C3)C(=O)N4C)cc2F)CNC1 (stereo partly drawn) = ≤ 76.5%

# inhibition at 0.005 µM of CO[C@@H]1CCNC[C@@H](C(=O)N[C@H](C#N)Cc2ccc(-c3ccn4ccnc4c3)cc2)OC1 = ≤ 76.5%

# inhibition at 0.005 µM of CN1CCC2(C1)OC(=O)c1ccc(-c3ccc(C[C@@H](C#N)NC(=O)[C@@H]4CNCCCCO4)cc3)cc12 (stereo partly drawn) = ≤ 76.5%

# inhibition at 0.005 µM of N#C[C@H](Cc1ccc(-c2ccc(S(=O)(=O)N3CCC3)cc2)cc1F)NC(=O)[C@@H]1CNCCCCO1 = ≤ 76.5%

# inhibition at 0.005 µM of CO[C@H]1CCO[C@H](C(=O)N[C@H](C#N)Cc2ccc(-c3ccc4c(c3)C3(CCN(C5COC5)CC3)OC4)cc2F)CNC1 = ≤ 76.5%

# inhibition at 0.005 µM of CO[C@@H]1CCNC[C@@H](C(=O)N[C@H](C#N)Cc2ccc(-c3cc4c(C)nc(C)cn4c3)cc2F)OC1 = 76.5 to 93.9%

# inhibition at 0.005 µM of N#C[C@H](Cc1cc2c(cc1F)-c1cc3c(cc1CO2)COC31CCN(C2COC2)CC1)NC(=O)[C@@H]1CNCCCO1 = ≤ 76.5%

# inhibition at 0.005 µM of N#C[C@H](Cc1ccc(-c2cnc3c(n2)CCCC3)cc1)NC(=O)[C@@H]1CNCCCCO1 = ≤ 76.5%

# inhibition at 0.005 µM of CN1CCC2(C1)OC(=O)c1ccc(-c3ccc(C[C@@H](C#N)NC(=O)[C@@H]4CNCCCCO4)c(F)c3)cc12 (stereo partly drawn) = ≤ 76.5%

# inhibition at 0.005 µM of CO[C@H]1CCO[C@H](C(=O)N[C@H](C#N)Cc2ccc(-c3cc4c(C)nc(C)c(C)n4c3)cc2)CNC1 = 76.5 to 93.9%

# inhibition at 0.005 µM of CO[C@@H]1CCNC[C@@H](C(=O)NC(C#N)Cc2cc3c(cc2F)-c2cc4c(cc2CO3)oc(=O)n4C)OC1 (stereo partly drawn) = 76.5 to 93.9%

# inhibition at 0.005 µM of C[C@@H]1NC[C@@H](C(=O)N[C@H](C#N)Cc2ccc(-c3cnc4c(n3)CCCC4)cc2)OC[C@@H]1O = ≤ 76.5%

# inhibition at 0.005 µM of Cc1nc(C)c2cc(-c3ccc(C[C@@H](C#N)NC(=O)[C@@H]4CN[C@@H](C)[C@@H](O)CO4)cc3)cn2c1C = ≤ 76.5%

# inhibition at 0.005 µM of CO[C@H]1CCO[C@H](C(=O)N[C@H](C#N)Cc2ccc(-c3ccc4nnn(C)c4c3)cc2F)CNC1 = ≤ 76.5%
